biological target: human CCR8 (human, UniProt P51685 1-355); assay: cell-based or functional assay
PARAMETER MEASURED: hCCL1 (100 nM) residual response in %, Protocol #3, mAb 5 µg/mL (33.3 nM) (%)
Response body: numeric value in %, unit text excluded.

IN: # return recorded hCCL1 (100 nM) residual response in %, Protocol #3, mAb 5 µg/mL (33.3 nM) for entry anti-CCR8 mAb 2-2 (antibody, V domains shown) VH: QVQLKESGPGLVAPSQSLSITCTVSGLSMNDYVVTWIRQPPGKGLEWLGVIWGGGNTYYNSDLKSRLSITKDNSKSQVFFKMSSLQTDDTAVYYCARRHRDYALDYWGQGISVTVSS VL: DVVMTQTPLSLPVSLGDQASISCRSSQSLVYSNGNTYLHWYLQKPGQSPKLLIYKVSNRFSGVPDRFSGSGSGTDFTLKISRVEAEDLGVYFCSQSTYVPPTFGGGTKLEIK
OUT: 75

IN: Indicate its recorded hCCL1 (100 nM) residual response in %, Protocol #3, mAb 5 µg/mL (33.3 nM); the binder in question is anti-CCR8 mAb 2-4 (antibody, V domains shown) VH: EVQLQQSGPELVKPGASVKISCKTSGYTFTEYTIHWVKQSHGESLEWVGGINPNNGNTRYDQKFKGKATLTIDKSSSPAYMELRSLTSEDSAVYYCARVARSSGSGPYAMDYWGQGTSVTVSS VL: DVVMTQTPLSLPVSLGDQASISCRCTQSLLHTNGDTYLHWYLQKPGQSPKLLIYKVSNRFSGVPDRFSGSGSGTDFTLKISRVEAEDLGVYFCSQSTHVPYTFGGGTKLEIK
OUT: 45
